target: human notum pectinacetyltransferase (Homo sapiens); construct: made in house; unpurified conditioned medium used; test: Binding assay (OPTS esterase substrate, fluorimetric); type: biochemical; conditions: class symbols
Sequence (Q6P988 20-496): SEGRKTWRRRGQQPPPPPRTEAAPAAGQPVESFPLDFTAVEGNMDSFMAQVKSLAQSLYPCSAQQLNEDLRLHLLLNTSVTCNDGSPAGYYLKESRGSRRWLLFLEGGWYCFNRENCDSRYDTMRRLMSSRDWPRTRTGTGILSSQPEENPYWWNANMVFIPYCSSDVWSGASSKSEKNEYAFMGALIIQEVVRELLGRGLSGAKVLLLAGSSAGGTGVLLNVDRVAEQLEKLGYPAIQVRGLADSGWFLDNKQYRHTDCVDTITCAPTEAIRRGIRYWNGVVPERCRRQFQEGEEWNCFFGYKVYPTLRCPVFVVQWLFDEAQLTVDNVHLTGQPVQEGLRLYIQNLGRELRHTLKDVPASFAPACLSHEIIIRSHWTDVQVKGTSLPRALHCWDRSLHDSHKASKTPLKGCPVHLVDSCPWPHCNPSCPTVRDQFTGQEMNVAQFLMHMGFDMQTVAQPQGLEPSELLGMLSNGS
pIC50: −log10 of the molar value.
assay_readout: pIC50

compound: CC1(C)Oc2c(F)cc(F)cc2-c2sc(C(N)=O)cc21
pIC50: > 6.00

*Q* Endpoint output: pIC50 of N#CC1CCN(C(=O)c2cc3c(s2)-c2ccc(Cl)c(F)c2OC3)C1 (stereo not drawn) . Value?
*A* > 6.00

*Q* Endpoint output: pIC50 of O=C(O)c1cc2c(s1)-c1cccc(F)c1CC2 . Value?
*A* > 7.30

Cited source: patent US9624238B2
